- Tested on: NCI-H23
- Method: NCI tumour cell line growth inhibition, 48 h
Activity calls are given as the source filed them. Rule as the data show it: active = GI50 up to about 1.1 µM and inactive = higher.
Respond using exactly one of the listed classes: label 1 = active, label 0 = inactive

Reference set (4 entries):
Molecule	Assayed Target	Class
C=C1C(C(O)C[C@H](C)C2O[C@@]3(CCCCO3)CCC2C)O[C@@H]2CCC3(CCC(/C=C/[C@@H](C)C4CC(C)=CC5(O4)O[C@H](C[C@](C)(O)C(=O)O)CCC5O)O3)OC2[C@@H]1O (stereo not given in full)	NCI-H23	label 1
COC(=O)c1c(O)c2c(c3c1OC(C)(C)CC3)OC(C)(C)CC2	NCI-H23	label 0
Nc1nc(NCCCO)cc(=O)[nH]1	NCI-H23	label 0
CCOC(=O)C(=[N+]=[N-])C(=O)CN1C(=O)c2ccccc2C1=O	NCI-H23	label 0

In this assay, the call recorded for CCc1cc2c(c3c1CCCC3=O)CC1(Cc3ccc(C(=O)OC)cc3C1)C2 (stereo not given) was what?
label 0
